MEASUREMENT KIND: Ki

Ki for Induced myeloid leukemia cell differentiation protein Mcl-1 (Homo sapiens, UniProt Q07820) with input O=C(O)c1cc2ccccc2[nH]1 equals > 1000 µM

// compound O=C(O)c1cc2ccccc2o1 , assay Induced myeloid leukemia cell differentiation protein Mcl-1 (Homo sapiens, UniProt Q07820), Ki value: > 1000 µM

// compound NC(=O)c1cc2ccccc2n1CCCOc1cccc2ccccc12 , assay Induced myeloid leukemia cell differentiation protein Mcl-1 (Homo sapiens, UniProt Q07820), Ki value: > 500 µM
